system-under-test: ΔF508-CFTR (Homo sapiens, UniProt P13569, DEL508-508)
Construct: expressed in transfected cells
Sequence (P13569 with tags, fused parts or gaps DEL508-508): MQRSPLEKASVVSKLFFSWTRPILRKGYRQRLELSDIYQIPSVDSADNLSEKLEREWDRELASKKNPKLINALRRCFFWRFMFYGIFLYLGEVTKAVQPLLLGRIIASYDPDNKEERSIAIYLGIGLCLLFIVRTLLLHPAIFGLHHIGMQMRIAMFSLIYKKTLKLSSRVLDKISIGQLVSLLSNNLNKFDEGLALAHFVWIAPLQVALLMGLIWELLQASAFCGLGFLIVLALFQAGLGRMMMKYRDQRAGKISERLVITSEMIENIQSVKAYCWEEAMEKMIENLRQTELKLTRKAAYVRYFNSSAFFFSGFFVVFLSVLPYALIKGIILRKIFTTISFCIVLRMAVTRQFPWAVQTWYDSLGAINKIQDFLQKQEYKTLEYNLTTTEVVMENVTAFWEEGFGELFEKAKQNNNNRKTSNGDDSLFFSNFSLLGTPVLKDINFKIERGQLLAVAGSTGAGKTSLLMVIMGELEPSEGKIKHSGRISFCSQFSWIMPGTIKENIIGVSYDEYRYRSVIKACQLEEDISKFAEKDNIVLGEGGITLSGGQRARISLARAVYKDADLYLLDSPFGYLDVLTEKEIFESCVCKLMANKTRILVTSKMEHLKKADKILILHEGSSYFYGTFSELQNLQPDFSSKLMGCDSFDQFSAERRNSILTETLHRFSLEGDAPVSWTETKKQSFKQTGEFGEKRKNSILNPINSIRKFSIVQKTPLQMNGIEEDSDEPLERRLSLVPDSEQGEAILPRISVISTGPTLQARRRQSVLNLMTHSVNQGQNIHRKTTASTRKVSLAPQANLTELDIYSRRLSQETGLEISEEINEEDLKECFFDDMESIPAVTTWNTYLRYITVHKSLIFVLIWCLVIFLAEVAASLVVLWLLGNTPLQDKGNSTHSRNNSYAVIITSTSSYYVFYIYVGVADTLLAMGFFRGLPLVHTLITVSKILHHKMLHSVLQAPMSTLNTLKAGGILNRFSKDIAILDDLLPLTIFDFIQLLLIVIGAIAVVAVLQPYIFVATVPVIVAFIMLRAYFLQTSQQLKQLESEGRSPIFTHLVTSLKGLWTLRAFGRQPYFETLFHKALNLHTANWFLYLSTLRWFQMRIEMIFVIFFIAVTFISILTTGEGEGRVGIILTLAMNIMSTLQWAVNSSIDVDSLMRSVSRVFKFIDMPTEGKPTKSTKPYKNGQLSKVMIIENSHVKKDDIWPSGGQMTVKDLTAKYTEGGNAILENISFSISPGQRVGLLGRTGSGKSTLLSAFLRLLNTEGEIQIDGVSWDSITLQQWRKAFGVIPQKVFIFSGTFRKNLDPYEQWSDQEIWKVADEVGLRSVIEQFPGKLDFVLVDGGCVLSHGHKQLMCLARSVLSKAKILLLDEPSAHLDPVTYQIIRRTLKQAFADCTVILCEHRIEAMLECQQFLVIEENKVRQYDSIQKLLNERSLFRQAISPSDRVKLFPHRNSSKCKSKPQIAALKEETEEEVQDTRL
assay-name: ΔF508-CFTR correction, membrane potential optical (FRET/VIPR) assay
Format: cell-based
run-parameters: NIH3T3 mouse fibroblasts stably expressing ΔF508-CFTR; read-out: % Efficacy
parameter: Emax

response.value for COc1ccc(C2(C(=O)Nc3ccc(C)c(-c4cc[nH]c(=O)c4)n3)CC2)cc1 (field: Emax) = 50 to 100%

response.value for Cc1ccc(NC(=O)C2(c3ccc4c(c3)OC(F)(F)O4)CC2)nc1-c1ccn(CC(=O)O)c(=O)c1 (field: Emax) = < 50%

response.value for COc1ccc(-c2nc(NC(=O)C3(c4ccc5c(c4)OC(F)(F)O5)CC3)ccc2C)cn1 (field: Emax) = > 100%

response.value for COc1cc(-c2nc(NC(=O)C3(c4ccc5c(c4)OC(F)(F)O5)CC3)cc(C)c2C)ccn1 (field: Emax) = > 100%

response.value for Cc1ccc(NC(=O)C2(c3ccc4c(c3)OCC4)CC2)nc1-c1ccc(=O)[nH]c1 (field: Emax) = > 100%

response.value for COc1cc(-c2cc(C)cc(NC(=O)C3(c4ccc5c(c4)OC(F)(F)O5)CC3)n2)ccn1 (field: Emax) = > 100%

response.value for COc1cccc(-c2nc(NC(=O)C3(c4ccc5c(c4)OC(F)(F)O5)CC3)ccc2C)n1 (field: Emax) = 50 to 100%

response.value for COc1ncc(C)cc1-c1nc(NC(=O)C2(c3ccc4c(c3)OC(F)(F)O4)CC2)cc(C)c1C (field: Emax) = > 100%

response.value for Cc1ccc(NC(=O)C2(c3ccc4c(c3)CCC4)CC2)nc1-c1ccc(=O)[nH]c1 (field: Emax) = 50 to 100%

response.value for Cc1cc(NC(=O)C2(c3ccc4c(c3)OC(F)(F)O4)CC2)nc(-c2ccc(=O)[nH]c2C)c1C (field: Emax) = > 100%
